Quick reference: Solubility in water of the listed items.
# measurement-context: water
value-kind: Solubility in water

compound: CC1(C)CC[NH2+][Pt-2]2([NH2+]C1)[O]C(=O)C1(CCOCC1)C(=O)[O]2 [Compound No. 23]
observed-result: > 3000 µg/mL
--
compound: C[C@H]1CC[NH2+][Pt-2]2([NH2+]C1)[O]C(=O)C1(CCC1)C(=O)[O]2 [15S]
observed-result: > 15000 µg/mL
--
compound: CC(C)(CN)CCN.O=C([O-])C1(C(=O)[O-])CCC1.[Pt+2] [Compound No. 22]
observed-result: > 3000 µg/mL
--
compound: CC1(C)CCC[NH2+][Pt-2]2([NH2+]1)[O]C(=O)C1(CCC1)C(=O)[O]2 [Compound No. 27]
observed-result: > 10000 µg/mL
--
compound: CC1CC[NH2+][Pt-2]2([NH2+]C1)[O]C(=O)C1(CCOCC1)C(=O)[O]2 (racemic) [Compound No. 16]
observed-result: > 15000 µg/mL
--
compound: O=C1[O][Pt-2]2([NH2+]CCCC[NH2+]2)[O]C(=O)C12CCOCC2 [Compound No. 3]
observed-result: > 10000 µg/mL
--
compound: C[C@@H](CN)CCN.O=C([O-])C1(C(=O)[O-])CCC1.[Pt+2] (stereo in doubt) [15R]
observed-result: > 15000 µg/mL
